Ref: paper PMC8126837

koff listing for selected binders.
Biological target: SARS-CoV-2 receptor-binding domain (RBD), wild type (SARS-CoV-2, UniProt P0DTC2 331-527)
Assay: BLI
All answers are understood in s⁻¹, so give the number only.

[[record]]
binder = "WNb 19 (VHH) VHH: QVQLQESGGGLVQPGGSLRLSCAASGSMFSINVMGWYRQASGKQRELVAGITRDGATNYSDSVKGRFTISGDNAKNTVYLQMNSLKPEDTAVYYCNTNVDSVWGSRIDYFGQGTQVTVSS"
property_name = "koff"
units_of_measure = "s⁻¹"
quantitative_readout = 0.000107

[[record]]
binder = "WNb 7 (VHH) VHH: QVQLQESGGGLVQPGGSLRLSCAAPGFTFSSYAMGWFRQVPGKGLEWVSGIYSDGSTYYADSVKGRFTISRDNAKNTVYLQMNSLKPEDTAVYYCAKDRLEGSSWPERDFGSWGQGTQVTVSS"
property_name = "koff"
units_of_measure = "s⁻¹"
quantitative_readout = "3.19e-05"


Attention now turns to another entry.
Entry WNb 23 (VHH) VHH: QVQLQESGGGLVQPGGSLRLSCAASGFTFKDYAMAWARQVPGKGLEWVSGIYSDGNTYYADSVKGRFTISRDNAKNTVYLRMNSLKPEDTAVYYCATERHPQGAADFGSWGQGTQVTVSS — recorded koff = 0.00245
